Assay type: in vivo, human
Details: both, human, plasma, po
MEASUREMENT_KIND: half-life (h)
Supply the numeric figure in h, leaving out any unit text.

Exam item: Quick check: half-life of CCOc1cc([C@@H](CS(C)(=O)=O)N2C(=O)c3cccc(NC(C)=O)c3C2=O)ccc1OC ?
Marked response: 6.31

---

Type: in vivo, human
Conditions: male, human, plasma, po, 20 mg
MEASUREMENT_KIND: Vd/F (L)
Numeric only. Scale: L

Exam item: Param item = CCOc1cc([C@@H](CS(C)(=O)=O)N2C(=O)c3cccc(NC(C)=O)c3C2=O)ccc1OC ; retrieve measured Vd/F.
Marked response: 111
